Source of measurements: ChEMBL document CHEMBL4270508

- ASSAYED_TARGET: Cyclin-dependent kinase 7/ cyclin H (Homo sapiens)
- Sequence (P51946 whole entry): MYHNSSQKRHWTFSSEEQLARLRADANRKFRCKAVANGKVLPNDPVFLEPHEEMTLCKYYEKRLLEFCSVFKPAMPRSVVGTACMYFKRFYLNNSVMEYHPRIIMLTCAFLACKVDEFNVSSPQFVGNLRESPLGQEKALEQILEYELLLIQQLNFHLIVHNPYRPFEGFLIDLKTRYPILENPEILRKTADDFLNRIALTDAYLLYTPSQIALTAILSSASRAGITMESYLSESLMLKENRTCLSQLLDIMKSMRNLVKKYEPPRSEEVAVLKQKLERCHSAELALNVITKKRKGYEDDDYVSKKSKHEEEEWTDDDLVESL
- Sequence (P50613 whole entry): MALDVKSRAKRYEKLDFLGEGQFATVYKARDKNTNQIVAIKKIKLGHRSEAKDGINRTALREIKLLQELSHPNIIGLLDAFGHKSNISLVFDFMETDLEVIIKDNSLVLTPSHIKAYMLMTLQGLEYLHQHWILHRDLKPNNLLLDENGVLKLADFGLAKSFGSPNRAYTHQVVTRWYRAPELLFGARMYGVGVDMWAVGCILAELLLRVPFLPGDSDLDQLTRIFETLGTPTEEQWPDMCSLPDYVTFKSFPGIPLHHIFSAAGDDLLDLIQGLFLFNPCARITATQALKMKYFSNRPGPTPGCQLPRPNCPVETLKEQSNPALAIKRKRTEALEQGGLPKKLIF
- ASSAY_REMARKS: Inhibition of human recombinant CDK7/cyclin H using histone H1 and [gamma-33P]ATP incubated fro 30 mins by scintillation counting analysis

CHEMICAL_STRUCTURE	IC50
CC[C@H](CO)Nc1nc(NCc2ccccc2)n2ncc(C(C)C)c2n1	43 to 500 nM

* * *

- ASSAYED_TARGET: Cyclin-dependent kinase 5/CDK5 activator 1 (Homo sapiens, UniProt Q00535)
- Sequence (Q00535 whole entry): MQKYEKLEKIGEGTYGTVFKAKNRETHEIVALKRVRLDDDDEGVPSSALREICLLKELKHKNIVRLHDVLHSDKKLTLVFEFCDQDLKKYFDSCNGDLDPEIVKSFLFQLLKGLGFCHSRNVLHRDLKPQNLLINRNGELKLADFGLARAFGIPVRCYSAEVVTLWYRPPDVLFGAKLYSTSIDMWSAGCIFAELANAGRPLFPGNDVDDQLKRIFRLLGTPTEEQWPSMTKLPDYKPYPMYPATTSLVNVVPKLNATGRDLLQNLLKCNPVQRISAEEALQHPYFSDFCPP
- Sequence (Q15078 whole entry, further chain): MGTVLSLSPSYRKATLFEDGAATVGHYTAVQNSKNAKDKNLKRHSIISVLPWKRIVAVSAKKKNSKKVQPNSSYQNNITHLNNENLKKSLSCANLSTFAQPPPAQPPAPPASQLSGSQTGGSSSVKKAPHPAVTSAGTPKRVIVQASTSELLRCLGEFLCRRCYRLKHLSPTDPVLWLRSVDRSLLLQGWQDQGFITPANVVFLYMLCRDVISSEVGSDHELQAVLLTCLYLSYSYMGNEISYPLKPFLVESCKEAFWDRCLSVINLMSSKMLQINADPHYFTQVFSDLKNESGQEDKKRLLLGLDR
- ASSAY_REMARKS: Inhibition of human recombinant CDK5/p25 using histone H1 and [gamma-33P]ATP incubated fro 30 mins by scintillation counting analysis
pIC50: −log10 of the molar value.
PROPERTY: pIC50

CHEMICAL_STRUCTURE	TEST_VALUE
CC[C@H](CO)Nc1nc(NCc2ccccc2)n2ncc(C(C)C)c2n1	6.30 to 7.37

* * *

- Test system: BT-474
- ASSAY_REMARKS: Antiproliferative activity in human BT474 cells assessed as inhibition of cell proliferation by SRB/MTT assay
- Format: functional, cell-based
PROPERTY: IC50 (µM)

CHEMICAL_STRUCTURE	PROPERTY	UNIT_NAME	TEST_VALUE
Cc1cc(C)n(-c2nc(N/N=C\c3c[nH]c4ccccc34)nc(Nc3ccc(Br)cc3)n2)n1	IC50	µM	7.1

* * *

- Test system: HT-29
- ASSAY_REMARKS: Anticancer activity against human HT-29 cells incubated for 48 hrs by MTT assay
- Format: functional, cell-based
- APPLIED_CONDITIONS: HT-29, 48 h

CHEMICAL_STRUCTURE	IC50
c1ccc(Nc2nc(Nc3ccc(-c4nc5ccccc5[nH]4)cc3)nc(N3CCOCC3)n2)cc1	4.8 to 15.1 µM

* * *

- ASSAYED_TARGET: CDK9/cyclin T1 (Homo sapiens, UniProt P50750)
- Sequence (O60563 whole entry, the tested form may be a part): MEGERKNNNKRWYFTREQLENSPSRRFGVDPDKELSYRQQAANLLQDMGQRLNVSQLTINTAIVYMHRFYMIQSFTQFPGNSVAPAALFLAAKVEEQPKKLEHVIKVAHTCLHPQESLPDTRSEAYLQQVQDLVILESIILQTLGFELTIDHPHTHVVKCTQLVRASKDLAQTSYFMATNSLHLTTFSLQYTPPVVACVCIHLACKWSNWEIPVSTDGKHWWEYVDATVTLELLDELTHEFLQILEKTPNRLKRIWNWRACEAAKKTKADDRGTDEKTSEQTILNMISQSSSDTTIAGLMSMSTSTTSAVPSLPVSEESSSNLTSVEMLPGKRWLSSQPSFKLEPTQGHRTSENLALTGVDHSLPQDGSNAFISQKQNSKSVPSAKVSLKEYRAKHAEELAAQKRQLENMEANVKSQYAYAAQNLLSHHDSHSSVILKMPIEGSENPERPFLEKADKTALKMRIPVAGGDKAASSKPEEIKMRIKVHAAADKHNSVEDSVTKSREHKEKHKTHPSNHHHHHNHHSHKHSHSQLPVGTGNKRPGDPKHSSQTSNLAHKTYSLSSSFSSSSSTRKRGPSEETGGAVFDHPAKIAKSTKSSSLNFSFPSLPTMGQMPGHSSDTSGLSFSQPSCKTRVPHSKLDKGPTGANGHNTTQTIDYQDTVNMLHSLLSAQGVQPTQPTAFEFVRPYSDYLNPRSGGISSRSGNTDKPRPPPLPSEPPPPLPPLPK
- Sequence (P50750 whole entry, the tested form may be a part): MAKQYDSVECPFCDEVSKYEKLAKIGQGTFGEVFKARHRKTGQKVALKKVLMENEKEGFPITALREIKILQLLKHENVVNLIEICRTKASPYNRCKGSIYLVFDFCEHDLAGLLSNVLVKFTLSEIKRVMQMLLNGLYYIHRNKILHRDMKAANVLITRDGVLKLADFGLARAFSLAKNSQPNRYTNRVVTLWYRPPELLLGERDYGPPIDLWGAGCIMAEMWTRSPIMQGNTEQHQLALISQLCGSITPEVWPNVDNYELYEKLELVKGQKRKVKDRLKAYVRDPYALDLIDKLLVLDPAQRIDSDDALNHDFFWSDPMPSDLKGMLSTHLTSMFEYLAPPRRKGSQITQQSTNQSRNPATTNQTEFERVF
- ASSAY_REMARKS: Inhibition of human recombinant CDK9/cyclin T expressed in insect cells using pRb fragment (773 to 928 amino acids) and [gamma-33P]ATP incubated fro 30 mins by scintillation counting analysis
PROPERTY: IC50

CHEMICAL_STRUCTURE	PROPERTY	TEST_VALUE
CC[C@H](CO)Nc1nc(NCc2ccccc2)n2ncc(C(C)C)c2n1	IC50	43 to 500 nM

* * *

- ASSAY_REMARKS: Cytotoxicity in human HO8910 cells assessed as reduction in cell viability incubated for 72 hrs by MTT assay
- Format: functional, cell-based
- APPLIED_CONDITIONS: HO-8910, 72 h
pIC50: −log10 of the molar value.
PROPERTY: pIC50

CHEMICAL_STRUCTURE	TEST_VALUE
Cc1ccc(Nc2nc(-c3ccccc3)nc(N3CCNCC3)n2)cc1	5.97

* * *

- Test system: Panel NCI-60 (60 carcinoma cell lines)
- ASSAY_REMARKS: Growth inhibition of human NCI60 cells incubated for 48 hrs by SRB assay
- Type: functional, cell-based
PROPERTY: IC50

CHEMICAL_STRUCTURE	TEST_VALUE
Nc1nc2nc(-c3ccccc3)nc(-c3ccccc3)n2n1	0.49 to 100 µM

* * *

- ASSAY_REMARKS: Inhibition of starfish oocytes CDK1/cyclin B using histone H1 and [gamma-33P]ATP incubated fro 30 mins by scintillation counting analysis
- Set-up: species or system Asteroidea
pIC50: −log10 of the molar value.
PROPERTY: pIC50

CHEMICAL_STRUCTURE	PROPERTY	TEST_VALUE
CC[C@H](CO)Nc1nc(NCc2ccccc2)n2ncc(C(C)C)c2n1	pIC50	6.30 to 7.37
